Target Or System: Type-2 angiotensin II receptor (Rattus norvegicus, UniProt P35351)
Test: In vitro antagonist activity against angiotensin II receptor type 2 in rat midbrain using [125I]-Sar,Ile AII.
pIC50: −log10 of the molar value.
Readout Type: pIC50

1) CCc1nc2c(C)cc(C)nc2n1Cc1ccc2c(ccn2Cc2ccccc2C(=O)OC)c1 :: 4.68
2) CCc1nc2c(C)cc(C)nc2n1Cc1ccc2c(c1)CCN2C(=O)c1cc(Cl)c(Cl)cc1C(=O)O :: 6.00
3) CCc1nc2c(C)cc(C)nc2n1Cc1ccc2c(c1)CCN2C(C#N)c1ccccc1C (centres undefined) :: 4.89
4) CCc1nc2c(C)cc(C)nc2n1Cc1ccc2c(c1)CCN2C(C#N)c1ccccc1 (centres undefined) :: 4.94
5) CCc1nc2c(C)cc(C)nc2n1Cc1ccc2c(ccn2C(=O)c2ccccc2NC(=O)O)c1 :: 4.77

---

Target Or System: Type-2 angiotensin II receptor (Rattus norvegicus, UniProt P35351)
Sequence (P35351 whole entry): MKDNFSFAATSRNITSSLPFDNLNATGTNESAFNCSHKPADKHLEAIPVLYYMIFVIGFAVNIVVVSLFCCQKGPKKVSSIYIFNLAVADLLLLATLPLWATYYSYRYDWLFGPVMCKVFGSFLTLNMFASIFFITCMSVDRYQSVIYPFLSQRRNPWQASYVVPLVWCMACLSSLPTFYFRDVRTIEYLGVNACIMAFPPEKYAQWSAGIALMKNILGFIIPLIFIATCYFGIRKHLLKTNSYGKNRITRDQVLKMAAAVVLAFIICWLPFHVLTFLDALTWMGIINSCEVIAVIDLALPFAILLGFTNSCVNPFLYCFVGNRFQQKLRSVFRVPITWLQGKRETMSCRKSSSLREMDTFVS
Test: In vitro antagonist activity against angiotensin II receptor type 2 in rat midbrain using [125I]-Sar,Ile AII.
pIC50: −log10 of the molar value.
Where pIC50 equals or exceeds 5, the correct label is Y; where it does not, the label is N.

1. CCc1nc2c(C)cc(C)nc2n1Cc1ccc2c(c1)CCN2C(=O)c1c(Cl)ccc(Cl)c1C(=O)O :: Y
2. CCc1nc2c(C)cc(C)nc2n1Cc1ccc2c(ccn2Cc2cccc([N+](=O)[O-])c2C(=O)O)c1 :: N
3. CCc1nc2c(C)cc(C)nc2n1Cc1ccc2c(ccn2C(=O)c2ccccc2-c2nnn[nH]2)c1 :: Y

---

Target Or System: Type-1 angiotensin II receptor (Oryctolagus cuniculus, UniProt P34976)
Sequence (P34976 whole entry): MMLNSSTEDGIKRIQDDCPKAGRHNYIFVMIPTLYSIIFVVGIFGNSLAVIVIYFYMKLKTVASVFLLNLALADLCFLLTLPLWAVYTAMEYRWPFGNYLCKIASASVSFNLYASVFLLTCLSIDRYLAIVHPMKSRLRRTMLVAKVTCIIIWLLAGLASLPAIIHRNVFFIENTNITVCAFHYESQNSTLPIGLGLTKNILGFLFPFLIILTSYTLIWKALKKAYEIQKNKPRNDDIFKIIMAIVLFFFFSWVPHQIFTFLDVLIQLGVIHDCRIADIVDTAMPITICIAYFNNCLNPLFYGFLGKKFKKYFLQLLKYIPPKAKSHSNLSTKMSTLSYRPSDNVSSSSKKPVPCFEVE
Test: In vitro antagonist activity against angiotensin II receptor type 1 in rabbit aorta using [125I]-Sar, Ile AII.
Assay type: functional, tissue-based
Readout Type: IC50 (nM)

1. CCc1nc2c(C)cc(C)nc2n1Cc1ccc2c(c1)CCN2C(C#N)c1ccccc1 (centres undefined) :: 350
2. CCc1nc2c(C)cc(C)nc2n1Cc1ccc2c(c1)CCN2C(C#N)c1ccccc1C (centres undefined) :: 1100
3. CCc1nc2c(C)cc(C)nc2n1Cc1ccc2c(c1)CCN2C(=O)c1ccccc1C#N :: 670
4. CCc1nc2c(C)cc(C)nc2n1Cc1ccc2c(c1)CCN2C(C#N)c1cccc(C)c1 (centres undefined) :: 1600

---

Target Or System: Type-1 angiotensin II receptor (Oryctolagus cuniculus, UniProt P34976)
Test: In vitro antagonist activity against angiotensin II receptor type 1 in rabbit aorta using [125I]-Sar, Ile AII.
pIC50: −log10 of the molar value.
Label scheme, based on pIC50: c1: < 7; c2: ≥ 7 and < 8; c3: ≥ 8

1) CCc1nc2c(C)cc(C)nc2n1Cc1ccc2c(c1)CCN2C(=O)c1c(Cl)ccc(Cl)c1C(=O)O :: c2
2) CCc1nc2c(C)cc(C)nc2n1Cc1ccc2c(c1)CCN2C(C(=O)OC)c1ccccc1 (centres undefined) :: c1
3) CCc1nc2c(C)cc(C)nc2n1Cc1ccc2c(ccn2C(=O)c2ccccc2-c2nnn[nH]2)c1 :: c3
4) CCc1nc2c(C)cc(C)nc2n1Cc1ccc2c(ccn2C(=O)c2ccccc2)c1 :: c1
5) CCc1nc2c(C)cc(C)nc2n1Cc1ccc2c(ccn2C(=O)c2ccccc2C#N)c1 :: c1
6) CCc1nc2c(C)cc(C)nc2n1Cc1ccc2c(ccn2Cc2c(Cl)cccc2-c2nnn[nH]2)c1 :: c3

---

Each entry below lists one item and its recorded pIC50 value.
Target Or System: Type-1 angiotensin II receptor (Oryctolagus cuniculus, UniProt P34976)
Test: In vitro antagonist activity against angiotensin II receptor type 1 in rabbit aorta using [125I]-Sar, Ile AII.
pIC50: −log10 of the molar value.
Readout Type: pIC50

1) CCc1nc2c(C)cc(C)nc2n1Cc1ccc2c(ccn2Cc2ccccc2-c2nn[nH]n2)c1 :: 8.06
2) CCc1nc2c(C)cc(C)nc2n1Cc1ccc2c(c1)CCN2C(=O)c1ccccc1C(=O)O :: 7.32
3) CCc1nc2c(C)cc(C)nc2n1Cc1ccc2c(ccn2Cc2ccccc2C#N)c1 :: 6.49
4) CCc1nc2c(C)cc(C)nc2n1Cc1ccc2c(c1)CCN2C(=O)c1cc(Cl)c(Cl)cc1C(=O)O :: 6.77
5) CCc1nc2c(C)cc(C)nc2n1Cc1ccc2c(ccn2C(=O)c2c(Cl)ccc(Cl)c2C(=O)O)c1 :: 9.10

---

Target Or System: Type-2 angiotensin II receptor (Rattus norvegicus)
Test: In vitro antagonist activity against angiotensin II receptor type 2 in rat midbrain using [125I]-Sar,Ile AII.
Assay type: functional
Each entry below lists one item and its recorded IC50 value.
Readout Type: IC50 (µM)

1) CCc1nc2c(C)cc(C)nc2n1Cc1ccc2c(ccn2C(=O)c2c(Cl)ccc(Cl)c2C(=O)O)c1 :: 2.7
2) CCc1nc2c(C)cc(C)nc2n1Cc1ccc2c(ccn2C(=O)c2ccccc2C(=O)O)c1 :: 6.6
3) CCc1nc2c(C)cc(C)nc2n1Cc1ccc2c(ccn2C(=O)c2cc(Cl)c(Cl)cc2C(=O)O)c1 :: 1.9
4) CCc1nc2c(C)cc(C)nc2n1Cc1ccc2c(c1)CCN2C(C(=O)OC)c1ccccc1 (centres undefined) :: 16
5) CCc1nc2c(C)cc(C)nc2n1Cc1ccc2c(c1)CCN2C(=O)c1ccccc1C(=O)O :: 10

---

Target Or System: Type-2 angiotensin II receptor (Rattus norvegicus, UniProt P35351)
Sequence (P35351 whole entry): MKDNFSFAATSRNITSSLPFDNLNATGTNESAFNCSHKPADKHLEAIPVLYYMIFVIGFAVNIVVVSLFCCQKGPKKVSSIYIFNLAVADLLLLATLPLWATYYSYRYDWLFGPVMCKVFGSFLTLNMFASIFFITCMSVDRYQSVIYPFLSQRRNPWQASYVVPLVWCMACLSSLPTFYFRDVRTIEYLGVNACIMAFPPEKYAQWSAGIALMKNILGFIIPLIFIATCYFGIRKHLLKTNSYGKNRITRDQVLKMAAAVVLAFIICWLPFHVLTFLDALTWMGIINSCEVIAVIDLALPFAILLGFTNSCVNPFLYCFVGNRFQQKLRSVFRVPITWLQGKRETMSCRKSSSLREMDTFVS
Test: In vitro antagonist activity against angiotensin II receptor type 2 in rat midbrain using [125I]-Sar,Ile AII.
Type: functional
pIC50: −log10 of the molar value.
Readout Type: pIC50

1. CCc1nc2c(C)cc(C)nc2n1Cc1ccc2c(c1)CCN2C(C(=O)O)c1ccccc1 (stereo not given) :: 4.85
2. CCc1nc2c(C)cc(C)nc2n1Cc1ccc2c(c1)CCN2C(=O)c1ccccc1C#N :: 4.60
3. CCc1nc2c(C)cc(C)nc2n1Cc1ccc2c(c1)CCN2C(C#N)c1ccc(C)cc1 (stereo not given) :: 4.85
4. CCc1nc2c(C)cc(C)nc2n1Cc1ccc2c(ccn2Cc2c(Cl)cccc2-c2nnn[nH]2)c1 :: 4.92

---

Target Or System: Type-1 angiotensin II receptor (Oryctolagus cuniculus, UniProt P34976)
Test: In vitro antagonist activity against angiotensin II receptor type 1 in rabbit aorta using [125I]-Sar, Ile AII.
Cut-off 0.1 µM on IC50: below means t, at or above means f.

1) CCc1nc2c(C)cc(C)nc2n1Cc1ccc2c(ccn2Cc2c(Cl)cccc2C#N)c1 :: f
2) CCc1nc2c(C)cc(C)nc2n1Cc1ccc2c(ccn2Cc2ccccc2C(=O)OC)c1 :: f
3) CCc1nc2c(C)cc(C)nc2n1Cc1ccc2c(c1)CCN2C(C(=O)O)c1ccccc1 (stereo not given) :: t
4) CCc1nc2c(C)cc(C)nc2n1Cc1ccc2c(c1)CCN2C(=O)c1ccccc1-c1nnn[nH]1 :: f
5) CCc1nc2c(C)cc(C)nc2n1Cc1ccc2c(ccn2C(=O)c2ccccc2C(=O)O)c1 :: t

---

Target Or System: Type-2 angiotensin II receptor (Rattus norvegicus)
Sequence (P35351 whole entry): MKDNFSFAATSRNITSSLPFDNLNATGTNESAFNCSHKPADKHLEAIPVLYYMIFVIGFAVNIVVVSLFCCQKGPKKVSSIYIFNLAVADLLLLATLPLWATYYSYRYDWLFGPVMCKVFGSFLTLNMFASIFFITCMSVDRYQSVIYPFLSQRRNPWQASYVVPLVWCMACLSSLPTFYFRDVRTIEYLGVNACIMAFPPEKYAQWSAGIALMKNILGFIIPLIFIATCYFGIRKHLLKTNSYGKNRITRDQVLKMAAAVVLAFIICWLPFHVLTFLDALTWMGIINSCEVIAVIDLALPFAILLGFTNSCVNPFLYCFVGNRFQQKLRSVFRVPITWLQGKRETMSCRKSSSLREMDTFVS
Test: In vitro antagonist activity against angiotensin II receptor type 2 in rat midbrain using [125I]-Sar,Ile AII.
Readout Type: IC50

1) CCc1nc2c(C)cc(C)nc2n1Cc1ccc2c(ccn2C(=O)c2ccccc2C#N)c1 :: > 50 µM
2) CCc1nc2c(C)cc(C)nc2n1Cc1ccc2c(ccn2Cc2ccccc2-c2nn[nH]n2)c1 :: > 18 µM
3) CCc1nc2c(C)cc(C)nc2n1Cc1ccc(-c2ccccc2-c2nnn[nH]2)cc1 :: > 10 µM
4) CCc1nc2c(C)cc(C)nc2n1Cc1ccc2c(ccn2Cc2ccccc2C#N)c1 :: > 30 µM
